Data provenance: patent US8450243B2

test system: Echinochloa crus-galli (ECHCG); test: Herbicidal glasshouse test, post-emergence; format: in vivo; conditions: Echinochloa crus-galli, post-emergence, 312 h, POST Application, evaluated after 13 days, read-out: damage to plant (100=total damage to plant; 0=no damage to plant)
Assignment: determine reported pest or weed control at 250 g/ha for the given compounds.
Quick note: unit goes after the number.

Example entries and their recorded answers appear below.
Cc1ccc2cc(C(=O)C3C(=O)CCCC3=O)c(=O)n(C)c2n1 ... 80%
O=C1CCCC(=O)C1C(=O)c1cc2cc(F)cnc2n(CCOc2ccccc2)c1=O ... 80%

Returns the measured pest or weed control at 250 g/ha for the input compound. Input: `COCCn1c(=O)c(C(=O)C2C(=O)CCCC2=O)cc2cc(F)cnc21` 80%

* * *

tested on: Echinochloa crus-galli (ECHCG); assay: Herbicidal glasshouse test, pre-emergence; assay type: in vivo; conditions: Echinochloa crus-galli, pre-emergence, 312 h, PRE Application, evaluated after 13 days, read-out: damage to plant (100=total damage to plant; 0=no damage to plant)
Property measured: pest or weed control at 250 g/ha (%)
Answers are plain numbers, in %.

Example entries and their recorded answers appear below.
COCCn1c(=O)c(C(=O)C2C(=O)CCCC2=O)cc2cc(F)c(C)nc21 ... 90
CCn1c(=O)c(C(=O)C2C(=O)CCCC2=O)cc2cc(F)cnc21 ... 100
Cc1ccc2cc(C(=O)C3C(=O)CCCC3=O)c(=O)n(C)c2n1 ... 90

# input for lookup
Short answer please: pest or weed control at 250 g/ha, Echinochloa crus-galli (ECHCG), entry `Cc1cc(C)c2cc(C(=O)C3C(=O)CCCC3=O)c(=O)n(C)c2n1` 0

* * *

system: Alopecurus myosuroides (ALOMY); assay: Herbicidal glasshouse test, pre-emergence; type: in vivo; settings: PRE Application, 250 g/ha, evaluated after 13 days
Assignment: determine reported damage to plant (100=total damage to plant; 0=no damage to plant) for the given molecules.
One number for each entry.

Example entries and their recorded answers appear below.
COc1ccc(-n2c(=O)c(C(=O)C3C(=O)CCCC3=O)cc3cc(F)cnc32)cc1 ... 70
COc1ccc(-n2c(=O)c(C(=O)C3C(=O)CCCC3=O)cc3cc(F)cnc32)cn1 ... 90
O=C1CCCC(=O)C1C(=O)c1cc2cc(F)cnc2n(CCC=C(F)F)c1=O ... 80
Cc1ccc(-n2c(=O)c(C(=O)C3C(=O)CCCC3=O)cc3cc(F)cnc32)cc1 ... 80
Cc1ccccc1-n1c(=O)c(C(=O)C2C(=O)CCCC2=O)cc2cc(F)cnc21 ... 90
O=C1CCCC(=O)C1C(=O)c1cc2cc(F)cnc2n(Cc2ccccc2F)c1=O ... 0

Short answer please: damage to plant (100=total damage to plant; 0=no damage to plant), Alopecurus myosuroides (ALOMY), entry `O=C1CCCC(=O)C1C(=O)c1cc2cc(F)cnc2n(-c2cccc(C(F)(F)F)c2)c1=O` 70

* * *

Assignment: determine reported damage to plant (100=total damage to plant; 0=no damage to plant) for the given molecules.
test system: Alopecurus myosuroides (ALOMY); assay: Herbicidal glasshouse test, pre-emergence; format: in vivo; conditions: PRE Application, 250 g/ha, evaluated after 13 days
Answers are plain numbers.

Example entries and their recorded answers appear below.
O=C1CCCC(=O)C1C(=O)c1cc2cc(F)cnc2n(-c2ccccc2Cl)c1=O ... 90
O=C1CCCC(=O)C1C(=O)c1cc2cc(F)cnc2n(-c2ccc(F)cc2F)c1=O ... 90

// for each molecule in input: emit damage to plant (100=total damage to plant; 0=no damage to plant)
1. O=C1CCCC(=O)C1C(=O)c1cc2cc(F)cnc2n(-c2cc(Cl)cc(Cl)c2)c1=O
2. O=C1CCCC(=O)C1C(=O)c1cc2cc(F)cnc2n(-c2ccccc2C(F)(F)F)c1=O

[90, 100]

* * *

tested on: Amaranthus retoflexus (AMARE); test: Herbicidal glasshouse test, post-emergence; type: in vivo; conditions: Amaranthus retroflexus, post-emergence, 312 h, POST Application, evaluated after 13 days, read-out: damage to plant (100=total damage to plant; 0=no damage to plant)
Property measured: pest or weed control at 250 g/ha (%)
Numbers only, in %.

O=C1CCCC(=O)C1C(=O)c1cc2cc(F)cnc2n(-c2ccccc2[N+](=O)[O-])c1=O ... 80

// for each compound in input: emit pest or weed control at 250 g/ha
1. Cc1ccc2cc(C(=O)C3C(=O)CCCC3=O)c(=O)n(C)c2n1
2. Cn1c(=O)c(C(=O)C2C(=O)CCCC2=O)cc2ccc(Br)cc21
3. O=C1CCCC(=O)C1C(=O)c1cc2cc(F)cnc2n(CCOc2ccccc2)c1=O
4. COCCn1c(=O)c(C(=O)C2C(=O)CCCC2=O)cc2cc(F)cnc21
5. COCCn1c(=O)c(C(=O)C2C(=O)CCCC2=O)cc2cc(F)c(C)nc21
6. COCn1c(=O)c(C(=O)C2C(=O)CCCC2=O)cc2cc(F)c(C)nc21
7. CCn1c(=O)c(C(=O)C2C(=O)CCCC2=O)cc2cc(F)cnc21
8. Cc1cc(C)c2cc(C(=O)C3C(=O)CCCC3=O)c(=O)n(C)c2n1

1. 80
2. 80
3. 50
4. 80
5. 70
6. 70
7. 70
8. 70

* * *

test system: Abuthilon theophrasti (ABUTH); test: Herbicidal glasshouse test, post-emergence; type: in vivo; settings: POST Application, 250 g/ha, evaluated after 13 days
Property measured: damage to plant (100=total damage to plant; 0=no damage to plant)
Numbers only.

O=C1CCCC(=O)C1C(=O)c1cc2cc(F)cnc2n(Cc2ccccc2F)c1=O ... 80

// for each molecule in input: emit damage to plant (100=total damage to plant; 0=no damage to plant)
1. COc1ccc(-n2c(=O)c(C(=O)C3C(=O)CCCC3=O)cc3cc(F)cnc32)cn1
2. O=C1CCCC(=O)C1C(=O)c1cc2cc(F)cnc2n(CCC=C(F)F)c1=O
3. O=C1CCCC(=O)C1C(=O)c1cc2cc(F)cnc2n(-c2cccc(C(F)(F)F)c2)c1=O

1: 80; 2: 80; 3: 100

* * *

system: Echinochloa crus-galli (ECHCG); assay: Herbicidal glasshouse test, post-emergence; format: in vivo; conditions: Echinochloa crus-galli, post-emergence, 312 h, POST Application, evaluated after 13 days, read-out: damage to plant (100=total damage to plant; 0=no damage to plant)
Property measured: pest or weed control at 250 g/ha
Quick note: unit goes after the number.

Example entries and their recorded answers appear below.
CCCn1c(=O)c(C(=O)C2C(=O)CCCC2=O)cc2cc(F)cnc21 ... 80%
COCn1c(=O)c(C(=O)C2C(=O)CCCC2=O)cc2cc(F)cnc21 ... 80%
COCn1c(=O)c(C(=O)C2C(=O)CCCC2=O)cc2cc(F)c(C)nc21 ... 80%

Returns the measured pest or weed control at 250 g/ha for the input molecule. Input: `O=C1CCCC(=O)C1C(=O)c1cc2cc(F)cnc2n(-c2ccccc2[N+](=O)[O-])c1=O` 90%

* * *

Assignment: determine reported pest or weed control at 250 g/ha for the given compounds.
system: Echinochloa crus-galli (ECHCG); experiment: Herbicidal glasshouse test, pre-emergence; assay type: in vivo; details: Echinochloa crus-galli, pre-emergence, 312 h, PRE Application, evaluated after 13 days, read-out: damage to plant (100=total damage to plant; 0=no damage to plant)
One number for each entry, in %.

Example entries and their recorded answers appear below.
CCCn1c(=O)c(C(=O)C2C(=O)CCCC2=O)cc2cc(F)cnc21 [Compound 1.50] ... 100
COCCn1c(=O)c(C(=O)C2C(=O)CCCC2=O)cc2cc(F)cnc21 [Compound 1.44] ... 100
O=C1CCCC(=O)C1C(=O)c1cc2cc(F)cnc2n(CCOc2ccccc2)c1=O [Compound 4.16] ... 50
COCn1c(=O)c(C(=O)C2C(=O)CCCC2=O)cc2cc(F)c(C)nc21 [Compound 1.46] ... 100
Cn1c(=O)c(C(=O)C2C(=O)CCCC2=O)cc2ccc(Br)cc21 [Compound 3.42] ... 70
Cn1c(=O)c(C(=O)C2C(=O)CCCC2=O)cc2cccnc21 [Compound 1.29] ... 100
O=C1CCCC(=O)C1C(=O)c1cc2cc(F)cnc2n(-c2ccccc2[N+](=O)[O-])c1=O [Compound 4.36] ... 100

# input for lookup
Returns the measured pest or weed control at 250 g/ha for the input compound. Input: COCn1c(=O)c(C(=O)C2C(=O)CCCC2=O)cc2cc(F)cnc21 [Compound 1.43] 100

* * *

test system: Echinochloa crus-galli (ECHCG); experiment: Herbicidal glasshouse test, pre-emergence; type: in vivo; settings: PRE Application, 250 g/ha, evaluated after 13 days
Property measured: damage to plant (100=total damage to plant; 0=no damage to plant)
Answers are plain numbers.

Example entries and their recorded answers appear below.
COc1ccccc1-n1c(=O)c(C(=O)C2C(=O)CCCC2=O)cc2cc(F)cnc21 [Compound 4.33] ... 100
COc1ccc(Cn2c(=O)c(C(=O)C3C(=O)CCCC3=O)cc3cc(F)cnc32)cc1 [Compound 4.17] ... 70
COc1ccc(-n2c(=O)c(C(=O)C3C(=O)CCCC3=O)cc3cc(F)cnc32)cn1 [Compound 4.20] ... 100
O=C1CCCC(=O)C1C(=O)c1cc2cc(F)cnc2n(-c2cccc(Cl)c2)c1=O [Compound 4.25] ... 100
O=C1CCCC(=O)C1C(=O)c1cc2cc(F)cnc2n(-c2ccccc2C(F)(F)F)c1=O [Compound 4.34] ... 100
O=C1CCCC(=O)C1C(=O)c1cc2cc(F)cnc2n(Cc2ccccc2F)c1=O [Compound 4.15] ... 80

// for each compound in input: emit damage to plant (100=total damage to plant; 0=no damage to plant)
1. COc1ccc(-n2c(=O)c(C(=O)C3C(=O)CCCC3=O)cc3cc(F)cnc32)cc1 [Compound 4.18]
2. Cc1ccccc1-n1c(=O)c(C(=O)C2C(=O)CCCC2=O)cc2cc(F)cnc21 [Compound 4.22]

1. 100
2. 100
